test: yeast display, Sf9 membrane polyspecificity reagent, FACS + sequencing; frameworks hold sequencing errors
Readout kind: polyreactivity (PSR sort gate)

| Sequence entry | polyreactivity (PSR sort gate) |
| --- | --- |
| QVQLVESGGGLVQAGGSLRLSCAASGFIFYNYAMGWYRQAPGKERELVAAITSRGGSTYYADSVKGRFTISRDNAKNTVYLQMNSLKPEDTAVYYCAAVKVGDARFVRNDYWGQGTQVTVSS | high polyreactivity |
| QVQLVESAGGLVQAGGSLRLSCADSGRTFAYNVIGWYRQAPGKERELVAGISFGAGTTYYADSVKGRFTISRDNAKNTVYLQMNSLKPEDTAVYYCATRRRGTRYPRGYDYWGQGTQVTVSS | high polyreactivity |
| QVQLVESGGGLVQAGGSLRLSCAASGRIFRSYVMGWYRQAPGKERELVAVISKNGGTTYYADSVKGRFTISRDNAKNTVYLQMNSLKPEDTAVYYCAADFRYRSQPGWGARRNGYYWGQGTQVTVSS | high polyreactivity |
| QVQLVESGGGLVQAGGSLSLSCAASGRTFIFYAMGWYRQAPGKERELVAAISSSGSGTYYADSVKGRFTISRDNAKNTVYLQMNSLKPEDTAVYYCAADVVNSRRRPKYGYWGQGTQVTVSS | low polyreactivity |
| QVQLVESGGGLVQAGGSHRLSCAASGSTLSVNAMGWYRQAPGKERELGAAIDFDGGDTYYADSVKGRFTLSRDNAKNTVYLQMNSLKPEDTAVYSCNAALRWKYDWVQGTQVTVSS | low polyreactivity |
| QVQLVESGGGLVQAGGSLRLSCAASGRIFGYYAMGWYRQAPGKERELVAAISDGGSTDYADSVKGRFTISRDNAKNTVYLQMNSLKPEDTAVYYCNADRLYLYNVEYDYWGQGTQVTVSS | low polyreactivity |
| QVQLVESGGGLVQAGGRLRLSCAASGIIFAWYAMGWSRQAPGKERELVAAITSGGSTYYADSVKGRFTISRDNAKNTVYLQMNSLKPDDTAVYYCAASDASTGYLGRHYYWGPGTQVTVSS | high polyreactivity |
| QVQRVESGGGLVQAGGSLRLSCAASGRIFSNYAMGWYRQAPGKEREFVAAISGSGGSTYYADSVKGRFTISRDNAKNTVYLQMNSLKPEDTAVYYCSTSGPQYYSRNFDYWGQGTQVTVSS | low polyreactivity |
| QVQLVESGGGLVQAGGSLRLSCAASGSTFNLYAMGWYRQAPGKERELVASISRSGVSTYYADSVKGRFTISRDNAKNTVYLQMNRLKPEDTAVYYCAVDKVLYRLYPGMDYWGQGTQVTVSS | low polyreactivity |
| QVQLVESGRGLVQAGRSLRLSCAASGFIFETYPMGWYRQAPGKVRELVAAISRGASTYYADSVKGRFTISRDNAKNTVYLQMNSLTPEDTAVYNCAAQQGISYGTGVSATNPMDYWGQGTHVTVSS | low polyreactivity |

Please examine the following record next.
In plain terms, "QVHLVESGGGLVQAGGSLRLSCAASGRIFFTNAMGWYRQAPGKERELVATISSSDGSTYYADSVKGRFTISRDNAKYTVYLQMNSLKPEDTAVYYCAALYSFRGSRQYTYKYYYWGLGTQVTVSS" has a documented polyreactivity (PSR sort gate) of high polyreactivity

###

experiment: yeast display, Sf9 membrane polyspecificity reagent, FACS + sequencing; frameworks hold sequencing errors
Readout kind: polyreactivity (PSR sort gate)

Would you please look over these solved cases?
| Sequence entry | polyreactivity (PSR sort gate) |
| --- | --- |
| QVQLVESGGGLVQAGGSLRLSCAASGLTFDHYTMGWYRQATGLERELVAAITKNGGSTYYADSVKGRFTISRDNAKNTVYLQMISLKPEDTAVYYCNVGPRRVDRSRAASSDYDYWGQGTQVTVSS | high polyreactivity |
| QVQLVESGGGLVQAGGSLRLSCGASGRTFKLYAMGWYRQAPAKERELVATIRRSGTRTYADSVKGRFTISRDNAKNTVYLQINSLKQEDTAVYYCAATTYAYVYHRYDYWGQGTQVTVSS | high polyreactivity |
| QVQLVESGGGLVQAGGSLRLSCAASGSTFETNAMGWYRQAPGKERELVAAIRWSTGNTYYADSVKGRFTISRDNAKNTVYLQMNSLKPEDTAVYDCAAYKGKHDKEGYWGQGTQVTVSS | low polyreactivity |
| QVQLVESGGGKVQAGGSLRLSCAPSGSIFFSYAMGWYRQAPGKERELVAAISGSGTSTYYADSVKGRFTISRDNAKNTVYLQMNSLKPEDTAVYYCPTDGGAAWGRYYWDYGYWGQGTQVTVSS | low polyreactivity |

Please examine the following record next.
In plain terms, "QVQLVESGGGLVQAAGSLRLSCAASGSIFVSYAMGWYRPAPWKEREFVATINYSGGSSYYADSVKGRFTISRDNAKNTVYLQMNSLKPEDTAVYYCAARPYHHGYWLNYGYWGQGTQVTVSS" has a documented polyreactivity (PSR sort gate) of high polyreactivity

###

test: yeast display, Sf9 membrane polyspecificity reagent, FACS + sequencing; frameworks hold sequencing errors
Readout kind: polyreactivity (PSR sort gate)

Would you please look over these solved cases?
| Sequence entry | Readout kind | Val |
| --- | --- | --- |
| QVQLEESGGGLVQAGGTLRLSCAASGSIFRNYAMGWYRQAPGKEWQLVAAISRSGTSTYYADSVKGRFTISRDNAKNTVYFQMNSLKPEDYAVYYCNARTYVAVGFNYWGQGTQVTVSS | polyreactivity (PSR sort gate) | high polyreactivity |
| QVQLVESGGGLVQARVSLRLSCAASGRIYGYTMGWYRQAPGKERELVAAITRNGGSTYYADSVKARFTISRDNSKNTVSLQMNSLKPEDNAVYYCAARNAFGTYYAWGQGTQVTVAS | polyreactivity (PSR sort gate) | high polyreactivity |
| QVQLVESVGGLVQAGGSLRLSCAASGFTFFHYAMGWYRQAPGKERELVAAINTRGSRTYYADSVKGRFTISRDNAKNTVYLQMNSLKPEDTAVYYCAADSVQVYAWQYYYWGQGTQVTVSS | polyreactivity (PSR sort gate) | high polyreactivity |
| QVQLVESGGGLVQAGGSLRLSCAASGYNLSVNAMGWYRQAPGKERELVATIDIAGGSTYYADSVNGRFTISRDNAKNTVYLQMNSMKPVDTAVYYCNTEWNSLSKSSLGGRYDHWGQCTQVTVSS | polyreactivity (PSR sort gate) | low polyreactivity |

// each sequence listed below needs its polyreactivity (PSR sort gate)
1. QVQLVESGGGLVQAGGSLRLSCAASGNIFSRYAMGWYRQAPGKERELVASISRGGRTNYADSVKGRFTISRDNAKNTVYLQMNSLKPEDTAVYYCAKGGKGYWHPTGPYPFNYWGQGTQVTVSS
2. QVQLVESGGGLVQAGGSLRLSCAASGSTFDPNVMGWYRQAPGKERELVAVITTTGVSTYYADSVKGRFTISRDNAKNTVYLQMNSLKPEDTAVYYCNAKWYWYLTRDAYRYRYTYDYWGQGTQVTVSS
3. QDQHVESGGGLVQAGGSLRLSCAASGSIFNYYAMGWYRQAPGKEREFVAAISRSGGSTYYADSEKGRFTISRDNAKNTVYLEMNSLKPEDTAVYYCNAYSYSEAGDDGDYWGQGTQVTVSS
4. QVQLVESGGGLVQAGGSLRLSCAASGFIIIGYFMGWYRQAPGKERELVAAITSSGGSTYYADSVKGRFTISRDNAKNTVYLQMNSLKPEDTAVYYCAARLYNSIYWGYYSWGPGTQVTVSS

1: high polyreactivity; 2: low polyreactivity; 3: low polyreactivity; 4: low polyreactivity

###

test: yeast display, Sf9 membrane polyspecificity reagent, FACS + sequencing; frameworks hold sequencing errors
Readout kind: polyreactivity (PSR sort gate)

Would you please look over these solved cases?
| Sequence entry | Readout kind | Val |
| --- | --- | --- |
| QVQLVESGGGLVQAGGRLRLSCAASGSTFPYNAMGCYRQAPGKERELVAAITSTGDSTYYADSVKGRFTISRDKAKNTVYLQMNSLKPEDTAVYYCAARSYASPGWRYEYWGQGTQVTVSS | polyreactivity (PSR sort gate) | low polyreactivity |
| QDQLVESGGGLVQAGGSLRLSCAPSGYFDLNALGWYRQAPGKERELVAANTDGGSTNYADSVKGRFTISRDNAKNTFYLQMNSLKPEDTAVYYCAADRGHTILHGGYWGQGTQVTVSS | polyreactivity (PSR sort gate) | low polyreactivity |
| QVQLVESGGGLVQAGGSLRLSCDASGSIVRYNAMGWYRQAPGKERELVADISTSGGSTYYADSVKGRFTISRDNANNTVYVQMNSLKPEDTAVYYCAKPWYSSGFDYWGQGTQVTVSS | polyreactivity (PSR sort gate) | high polyreactivity |
| QVQLVESGGGLVQAGGSLRLSCAASGRIYSVYAMGWYRQAPGKERELVAAIRSGDRTNYADSVKGRFTISRDNAKNTVYLQMNSLKPEDTAVYYCAAVQRPYYYWGQGTQVTVSS | polyreactivity (PSR sort gate) | high polyreactivity |

Please examine the following record next.
In plain terms, "QVHLVESGGGLVQAGGSLRLRSAASGRTFGWNVMGWYRQAPGKERELVAAISGSGGSTYYADSVKGRFTISRDNAKNTVYLQMNSLKPEDTAVYYCDALYGPGREYDYWGQGTQVTVSS" has a documented polyreactivity (PSR sort gate) of low polyreactivity
